This collection of values is drawn from ChEMBL document CHEMBL1201862.

Experiment: toxicity toward HepG2 liver cells – cell-based, plate reader, cherry-pick, antagonist series, cytotoxicity control, dose response (AID 743416)
Type: functional
The source made the active and inactive calls.
Choose the fitting class; nothing outside TRUE (active), FALSE (inactive) is accepted.

Solved cases below.
COMPOUND: COc1ccccc1CCn1cnc(-c2ccc(Cl)cc2)c1CC(C)C
CLASS_ASSIGNMENT: TRUE
--
COMPOUND: O=C1CN(C(=O)Cn2ncc(Cl)c(Cl)c2=O)c2ccccc2N1
CLASS_ASSIGNMENT: TRUE
--
COMPOUND: COc1ccc2cc3cc(C(=O)NC4CC4)sc3nc2c1
CLASS_ASSIGNMENT: FALSE

Switching to the query record.
Request: Please indicate how the test categorized CC[C@H]1CN2CCc3cc(OC)c(OC)cc3C2C[C@@H]1C[C@H]1NCCc2cc(OC)c(OC)cc21 (some centres undefined) .
Result: TRUE

###

Target: Trace amine-associated receptor 1 (Homo sapiens, UniProt Q96RJ0)
Sequence (Q96RJ0 whole entry): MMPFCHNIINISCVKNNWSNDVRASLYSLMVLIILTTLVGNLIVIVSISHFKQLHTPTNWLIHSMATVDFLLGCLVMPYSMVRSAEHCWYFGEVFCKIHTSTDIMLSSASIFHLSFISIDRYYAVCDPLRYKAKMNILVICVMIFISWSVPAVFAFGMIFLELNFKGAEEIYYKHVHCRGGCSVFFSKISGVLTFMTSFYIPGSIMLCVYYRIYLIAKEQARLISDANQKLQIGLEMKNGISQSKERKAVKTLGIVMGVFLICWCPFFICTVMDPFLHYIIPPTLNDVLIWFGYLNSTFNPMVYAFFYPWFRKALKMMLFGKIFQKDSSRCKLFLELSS
Experiment: Fluorescence-based cell-based high throughput dose response assay to identify agonists of the human trace amine associated receptor 1 (TAAR1).
Format: functional
Counter-ions that a name gives are not always drawn. Activity calls are given as the source filed them.
Items are presented alongside their recorded EC50.

COMPOUND: N=C(N)SCc1ccccc1Cl
EC50: 1.42 µM (active)

COMPOUND: CN1CCN(c2ccc(NC(=O)c3cccc(OCc4ccccc4)c3)cc2)CC1
EC50: 9.36 µM (active)

COMPOUND: c1ccc2c(CC3=NCCN3)cccc2c1 [NAPHAZOLINE HYDROCHLORIDE]
EC50: 0.14 µM (active)

Now consider the entry below.
Noted for COc1ccccc1CCn1cnc(-c2ccc(Cl)cc2)c1CC(C)C : its EC50 reads 2.37 µM (active)

###

Biological target: Leucine aminopeptidase (Plasmodium falciparum 3D7, UniProt Q8IL11)
Sequence (Q8IL11 whole entry): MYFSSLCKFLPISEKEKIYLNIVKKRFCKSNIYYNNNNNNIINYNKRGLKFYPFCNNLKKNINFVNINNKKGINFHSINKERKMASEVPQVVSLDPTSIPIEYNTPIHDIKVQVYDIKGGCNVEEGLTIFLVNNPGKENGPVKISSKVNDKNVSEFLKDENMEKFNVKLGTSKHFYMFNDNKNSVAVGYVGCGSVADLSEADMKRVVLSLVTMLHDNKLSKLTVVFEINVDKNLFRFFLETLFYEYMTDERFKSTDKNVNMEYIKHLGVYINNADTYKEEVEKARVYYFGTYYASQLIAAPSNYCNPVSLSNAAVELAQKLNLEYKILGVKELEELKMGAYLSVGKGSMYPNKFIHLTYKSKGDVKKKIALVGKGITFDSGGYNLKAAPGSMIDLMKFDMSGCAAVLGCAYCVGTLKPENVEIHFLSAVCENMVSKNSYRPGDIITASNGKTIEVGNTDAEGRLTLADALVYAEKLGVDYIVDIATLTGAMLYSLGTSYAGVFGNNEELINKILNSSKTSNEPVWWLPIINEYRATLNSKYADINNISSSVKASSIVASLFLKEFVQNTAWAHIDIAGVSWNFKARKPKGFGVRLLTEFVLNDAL
Test: P. falciparum M17LAP inhibitors, primary screen, biochemical, fluorogenic H-Leu-NHMec substrate, 1536-well (AID 1619)
Assay type: functional
The source made the active and inactive calls.
TEST_READOUT: IC50

Below, each entry is followed by its recorded IC50 result.
COMPOUND: CCc1c(O)nc(SCC(=O)Nc2ccc3c(c2)CCC3)nc1O
TARGET_DESC: Leucine aminopeptidase (Plasmodium falciparum 3D7, UniProt Q8IL11)
TEST_READOUT: IC50
ENDPOINT_RESULT: 8.08 µM (active)
//
COMPOUND: O=C(CCc1ccccc1)NNC(=S)NC(=O)c1ccccc1
TARGET_DESC: Leucine aminopeptidase (Plasmodium falciparum 3D7, UniProt Q8IL11)
TEST_READOUT: IC50
ENDPOINT_RESULT: 41.3 µM (active)
//
COMPOUND: Cn1nnnc1SCC1=C(C(=O)O)N2C(=O)[C@@H](NC(=O)[C@H](O)c3ccccc3)[C@H]2SC1 [CEFAMANDOLE SODIUM]
TARGET_DESC: Leucine aminopeptidase (Plasmodium falciparum 3D7, UniProt Q8IL11)
TEST_READOUT: IC50
ENDPOINT_RESULT: 12.1 µM (active)
//
COMPOUND: CCSc1nnc(NC(=O)C2CCCCC2C(=O)OCC(F)(F)C(F)F)s1 (stereo not drawn)
TARGET_DESC: Leucine aminopeptidase (Plasmodium falciparum 3D7, UniProt Q8IL11)
TEST_READOUT: IC50
ENDPOINT_RESULT: 76.8 µM (active)
//
COMPOUND: Cc1ccc(/C=c2/sc3nnc(-c4ccccc4Cl)n3c2=O)o1
TARGET_DESC: Leucine aminopeptidase (Plasmodium falciparum 3D7, UniProt Q8IL11)
TEST_READOUT: IC50
ENDPOINT_RESULT: 28.7 µM (active)
//
COMPOUND: CCOC(=O)c1c(NC(=O)C2C3C=CC(C3)C2(C)C(=O)O)sc2c1CCCC2 (stereo not drawn)
TARGET_DESC: Leucine aminopeptidase (Plasmodium falciparum 3D7, UniProt Q8IL11)
TEST_READOUT: IC50
ENDPOINT_RESULT: 8.1 µM (active)
//
COMPOUND: CCOC(=O)CC(=O)CSc1nc(O)c2sc(=S)n(-c3ccccc3)c2n1
TARGET_DESC: Leucine aminopeptidase (Plasmodium falciparum 3D7, UniProt Q8IL11)
TEST_READOUT: IC50
ENDPOINT_RESULT: 40.6 µM (active)

Continue with the compound presented below.
Readout IC50 for Cc1nnc(SCC(=O)Nc2cccc(C(F)(F)F)c2)[nH]c1=O , test system Leucine aminopeptidase (Plasmodium falciparum 3D7, UniProt Q8IL11), was 15.1 µM (active)

###

Test: loss of viability in HepG2 cells – cell-based, CellTiter-Glo, cherry-picked, cytotoxicity control for Shn3 inhibitor project, dose response (AID 624134)
Type: functional
Active and inactive are the calls of the source.
TEST_READOUT: AC50

Answered cases to consult:
MOLECULE: CCn1c(N2CCN(S(=O)(=O)c3ccc(Cl)cc3)CC2)nc2ccccc21
AC50: 58.3 µM (active)

MOLECULE: COc1ccc(C(NC(C)=O)c2cc(Cl)c3cccnc3c2O)cc1OC (centres undefined)
AC50: 3.12 µM (active)

MOLECULE: O=C(/C=C/Nc1ccccc1Br)c1ccccn1
AC50: 47.7 µM (active)

# evaluate next
// sample CC1CC(C)(C)CC2(C1)NC(=O)N(CC(=O)N1CCN(Cc3ccc(C#N)cc3)CC1)C2=O (centres undefined) , its AC50 was 2.54 µM (active)

###

Assay: microbe, parasite or virus in culture
Type: functional
Conditions: Mycobacterium tuberculosis
Active and inactive are the calls of the source.
TEST_READOUT: CC50

MOLECULE: C/C(=N\Nc1ccc(S(=O)(=O)N2CCCCC2)cn1)c1cccc(Br)c1
CC50: > 40 µM (active)
//
MOLECULE: CCOc1ccc(CN(C)CC(O)COC(c2ccc(OC)cc2)c2ccc(OC)cc2)cc1 (centres undefined)
CC50: 26.6 µM (active)
//
MOLECULE: O=C(NCc1nnnn1-c1ccc(F)cc1)c1ccc([N+](=O)[O-])o1
CC50: 19.3 µM (active)

Kindly review the next molecule as well.
CCC(C)(C)c1ccc(OCCCC[n+]2ccc(C)cc2)c(C(C)(C)CC)c1 yielded CC50 of > 40 µM (active)

###

Biological target: UniProt:P49327
Sequence (P49327 whole entry): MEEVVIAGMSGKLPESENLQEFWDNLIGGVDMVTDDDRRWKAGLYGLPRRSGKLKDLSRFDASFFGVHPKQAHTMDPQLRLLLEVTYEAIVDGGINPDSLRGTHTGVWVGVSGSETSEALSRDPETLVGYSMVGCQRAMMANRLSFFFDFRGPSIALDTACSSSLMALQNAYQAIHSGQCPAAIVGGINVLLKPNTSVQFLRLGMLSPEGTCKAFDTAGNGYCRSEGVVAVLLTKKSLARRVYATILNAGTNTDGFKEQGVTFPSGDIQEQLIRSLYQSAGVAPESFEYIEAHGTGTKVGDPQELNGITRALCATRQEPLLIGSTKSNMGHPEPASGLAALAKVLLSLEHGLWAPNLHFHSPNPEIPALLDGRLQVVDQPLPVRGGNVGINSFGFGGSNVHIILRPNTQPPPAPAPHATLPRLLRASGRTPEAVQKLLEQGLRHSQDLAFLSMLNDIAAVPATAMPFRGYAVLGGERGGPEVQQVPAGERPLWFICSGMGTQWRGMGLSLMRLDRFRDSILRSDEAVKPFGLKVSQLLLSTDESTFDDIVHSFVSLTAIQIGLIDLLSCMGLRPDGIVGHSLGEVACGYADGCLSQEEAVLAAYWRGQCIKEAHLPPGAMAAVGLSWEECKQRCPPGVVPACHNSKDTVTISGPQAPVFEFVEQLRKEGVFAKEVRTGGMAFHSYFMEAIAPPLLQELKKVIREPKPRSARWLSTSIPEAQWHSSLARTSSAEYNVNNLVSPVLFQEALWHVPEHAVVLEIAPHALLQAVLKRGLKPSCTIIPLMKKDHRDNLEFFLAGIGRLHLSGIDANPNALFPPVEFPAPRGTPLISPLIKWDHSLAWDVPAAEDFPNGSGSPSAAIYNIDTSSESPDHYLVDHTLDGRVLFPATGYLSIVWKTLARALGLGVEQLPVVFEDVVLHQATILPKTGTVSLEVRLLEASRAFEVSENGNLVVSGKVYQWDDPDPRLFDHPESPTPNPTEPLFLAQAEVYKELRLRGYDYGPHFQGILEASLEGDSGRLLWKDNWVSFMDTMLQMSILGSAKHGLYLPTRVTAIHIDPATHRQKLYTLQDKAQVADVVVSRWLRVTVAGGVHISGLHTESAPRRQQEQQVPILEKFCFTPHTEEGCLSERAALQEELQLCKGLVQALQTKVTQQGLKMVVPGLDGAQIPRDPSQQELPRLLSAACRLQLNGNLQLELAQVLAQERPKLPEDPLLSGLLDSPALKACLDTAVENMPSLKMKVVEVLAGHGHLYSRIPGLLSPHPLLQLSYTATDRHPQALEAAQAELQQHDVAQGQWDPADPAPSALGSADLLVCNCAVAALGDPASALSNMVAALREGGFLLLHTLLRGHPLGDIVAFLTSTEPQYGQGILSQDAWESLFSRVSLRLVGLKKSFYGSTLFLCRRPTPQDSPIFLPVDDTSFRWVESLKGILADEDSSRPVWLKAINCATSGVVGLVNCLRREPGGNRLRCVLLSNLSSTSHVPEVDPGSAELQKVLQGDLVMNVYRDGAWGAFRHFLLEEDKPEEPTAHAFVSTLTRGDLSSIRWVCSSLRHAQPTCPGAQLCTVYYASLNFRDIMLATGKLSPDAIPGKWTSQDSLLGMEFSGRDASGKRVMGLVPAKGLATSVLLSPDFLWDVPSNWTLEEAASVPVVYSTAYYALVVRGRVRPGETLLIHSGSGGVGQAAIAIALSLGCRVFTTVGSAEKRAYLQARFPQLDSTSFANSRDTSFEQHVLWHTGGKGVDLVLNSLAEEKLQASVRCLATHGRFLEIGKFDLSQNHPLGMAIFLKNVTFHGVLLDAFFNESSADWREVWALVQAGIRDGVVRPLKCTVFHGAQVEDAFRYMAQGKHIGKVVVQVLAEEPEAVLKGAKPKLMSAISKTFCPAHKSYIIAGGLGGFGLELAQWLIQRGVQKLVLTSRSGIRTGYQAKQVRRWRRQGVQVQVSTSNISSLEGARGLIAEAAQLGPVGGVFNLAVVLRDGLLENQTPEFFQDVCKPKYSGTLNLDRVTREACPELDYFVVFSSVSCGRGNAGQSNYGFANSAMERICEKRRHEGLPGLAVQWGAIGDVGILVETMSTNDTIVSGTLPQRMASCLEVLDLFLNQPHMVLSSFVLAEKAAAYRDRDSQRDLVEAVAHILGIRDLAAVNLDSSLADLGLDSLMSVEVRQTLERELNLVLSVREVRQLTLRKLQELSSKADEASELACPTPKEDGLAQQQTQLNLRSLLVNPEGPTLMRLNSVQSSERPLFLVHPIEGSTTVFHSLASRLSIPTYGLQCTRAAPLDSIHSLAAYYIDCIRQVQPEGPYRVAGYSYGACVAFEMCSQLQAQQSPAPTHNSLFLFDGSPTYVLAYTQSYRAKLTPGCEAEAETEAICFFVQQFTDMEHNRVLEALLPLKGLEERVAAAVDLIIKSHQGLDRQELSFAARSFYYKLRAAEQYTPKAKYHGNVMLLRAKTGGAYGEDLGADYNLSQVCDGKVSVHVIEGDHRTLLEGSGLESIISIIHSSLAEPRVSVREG
Experiment: inhibition of human FAS-TE enzyme activity – biochemical, kinetic fluorescence intensity, dose response (AID 624326);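 also: rate of fluorescence rise from hydrolysis of a fluorogenic O-methyl fluorescein ester substrate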
Type: functional
The source made the active and inactive calls.
Recorded IC50 values for a group of compounds are listed next.

Solved cases (3 shown):
COMPOUND: CC(NC(=O)Nc1cccc([N+](=O)[O-])c1)c1ccc2c(c1)OCO2 (centres undefined)
IC50: 1.64 µM (active)
--
COMPOUND: COCCCNC(=O)CC1C[C@H](C(=O)N2CCOCC2)[C@@]2(CCC3CCCC3)c3[nH]c4ccc(OC)cc4c3CCN2C1=O (some centres undefined)
IC50: 7.56 µM (active)
--
COMPOUND: CCCCCn1c(CN2CCN(c3cccc(Cl)c3)CC2)nc2c1c(=O)n(C)c(=O)n2C
IC50: 4.64 µM (active)

Let us move to another entry and its IC50.
Consider O=C(COc1cc([N+](=O)[O-])cc2cccnc12)NCCC1=CCCCC1 . Its measured IC50 is 0.778 µM (active)

###

Each item that follows carries a reported AC50.
Test: non-specific 3'UTR reporter inhibition in Clone20-Shn3RL – cell-based, Renilla luciferase, cherry-picked, counter-screen for Shn3 inhibitor project, dose response (AID 624133)
Assay type: functional
The source made the active and inactive calls.

MOLECULE: Cc1ccc(NS(=O)(=O)c2ccc(C(=O)NC3CCN(Cc4ccccc4)CC3)cc2)cc1
TEST_READOUT: AC50
ENDPOINT_RESULT: 12.9 µM (active)

MOLECULE: O=C(/C=C/Nc1ccccc1Br)c1ccccn1
TEST_READOUT: AC50
ENDPOINT_RESULT: 30.4 µM (active)

MOLECULE: COc1cccc(CNCCc2c[nH]c3ccccc23)c1OCc1ccccc1
TEST_READOUT: AC50
ENDPOINT_RESULT: 9.39 µM (active)

MOLECULE: Cc1cc(N2CCCCC2)nc(NCc2ccccc2)n1
TEST_READOUT: AC50
ENDPOINT_RESULT: 6.27 µM (active)

MOLECULE: CCCCC(=O)NC(c1ccc(OC)cc1)c1ccc2cccnc2c1O (stereo unspecified)
TEST_READOUT: AC50
ENDPOINT_RESULT: 8.8 µM (active)

Continue with the molecule presented below.
Reported AC50 for COc1ccc(C(NC(C)=O)c2cc(Cl)c3cccnc3c2O)cc1OC (stereo unspecified) was 2.98 µM (active)
